Source listed as PubChem BioAssay AID1347165.

assayed_system: Lysine-specific demethylase 5B (Homo sapiens) (UniProt Q9UGL1)
Sequence (Q9UGL1 whole entry, looked up): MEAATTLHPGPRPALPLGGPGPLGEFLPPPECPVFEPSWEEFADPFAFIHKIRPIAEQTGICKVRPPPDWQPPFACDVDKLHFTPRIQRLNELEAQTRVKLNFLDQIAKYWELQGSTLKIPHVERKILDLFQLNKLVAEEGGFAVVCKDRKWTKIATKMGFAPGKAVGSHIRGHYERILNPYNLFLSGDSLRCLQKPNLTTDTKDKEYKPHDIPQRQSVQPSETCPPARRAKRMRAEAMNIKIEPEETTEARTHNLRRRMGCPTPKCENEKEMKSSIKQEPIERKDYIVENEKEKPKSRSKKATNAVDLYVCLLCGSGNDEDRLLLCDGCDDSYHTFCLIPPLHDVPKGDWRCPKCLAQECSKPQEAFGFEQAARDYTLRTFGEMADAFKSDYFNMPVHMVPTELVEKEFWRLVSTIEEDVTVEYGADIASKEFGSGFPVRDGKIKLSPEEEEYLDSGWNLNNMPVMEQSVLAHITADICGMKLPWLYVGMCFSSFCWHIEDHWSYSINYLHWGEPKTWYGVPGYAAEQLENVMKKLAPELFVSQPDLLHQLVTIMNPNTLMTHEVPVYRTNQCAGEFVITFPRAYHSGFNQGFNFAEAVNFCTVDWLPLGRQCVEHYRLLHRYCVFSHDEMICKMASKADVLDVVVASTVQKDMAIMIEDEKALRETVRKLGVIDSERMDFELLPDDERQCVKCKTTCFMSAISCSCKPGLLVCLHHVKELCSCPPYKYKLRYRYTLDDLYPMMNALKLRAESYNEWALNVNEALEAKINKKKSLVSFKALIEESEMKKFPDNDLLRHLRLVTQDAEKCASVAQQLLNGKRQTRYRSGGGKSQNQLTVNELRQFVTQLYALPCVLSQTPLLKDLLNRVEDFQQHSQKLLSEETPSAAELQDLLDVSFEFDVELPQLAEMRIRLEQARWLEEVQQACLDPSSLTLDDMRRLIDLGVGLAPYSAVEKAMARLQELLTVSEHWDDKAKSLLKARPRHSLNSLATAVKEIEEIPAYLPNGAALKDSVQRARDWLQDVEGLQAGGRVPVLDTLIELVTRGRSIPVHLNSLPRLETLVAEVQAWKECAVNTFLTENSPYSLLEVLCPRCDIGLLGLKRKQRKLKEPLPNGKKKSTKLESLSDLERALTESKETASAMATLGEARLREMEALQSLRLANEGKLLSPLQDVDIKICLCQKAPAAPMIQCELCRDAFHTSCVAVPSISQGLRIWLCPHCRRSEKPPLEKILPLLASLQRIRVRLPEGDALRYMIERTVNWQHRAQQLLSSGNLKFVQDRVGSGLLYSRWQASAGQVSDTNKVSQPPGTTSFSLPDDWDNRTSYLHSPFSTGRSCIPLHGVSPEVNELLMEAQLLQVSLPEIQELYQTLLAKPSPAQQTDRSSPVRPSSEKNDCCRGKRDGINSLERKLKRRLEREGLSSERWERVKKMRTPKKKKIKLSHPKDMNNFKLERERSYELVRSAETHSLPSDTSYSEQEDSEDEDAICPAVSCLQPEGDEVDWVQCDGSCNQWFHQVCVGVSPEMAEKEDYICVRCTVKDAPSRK
assay_protocol: Primary screen for KDM5B Histone Demethylases FDH-coupled qHTS; also: nearly all actives have a fitted effect of over 70% in size
assay_setup: FDH-coupled NADH fluorescence; series mostly up to 57.7 µM
Screen size: about 220,000 compounds; about 5,700 (2.6%) were called active. About 18% were inconclusive and are not listed. Calls follow the shape of the dose curve; as a rule, active = well fitted inhibition curve with a large enough effect; inconclusive = small, poorly fitted or top-dose-only effect; inactive = no such curve, though single readings can be large or run the other way. The full list was thinned out, with actives kept by preference.
Reply using exactly one outcome from active, inactive

Reference set, count: 4
- compound: "Cc1nnn2c(C(=O)NC3CC3)cccc12"
  assayed_system: "Lysine-specific demethylase 5B (Homo sapiens) (UniProt Q9UGL1)"
  label: "active"
- compound: "CCc1nc2ccc(C(=O)NCCCN(CC)CC)cc2nc1CC"
  assayed_system: "Lysine-specific demethylase 5B (Homo sapiens) (UniProt Q9UGL1)"
  label: "inactive"
- compound: "Cc1nn(-c2ccc(C(C)C)cc2)c(C)c1[C@@H]1C=C[C@@H](NC(=O)Nc2ccccc2)C1"
  assayed_system: "Lysine-specific demethylase 5B (Homo sapiens) (UniProt Q9UGL1)"
  label: "inactive"
- compound: "COc1ccc(S(=O)(=O)N2CCCC(C(=O)NCCCn3ccnc3)C2)cc1OC (stereo not given)"
  assayed_system: "Lysine-specific demethylase 5B (Homo sapiens) (UniProt Q9UGL1)"
  label: "inactive"

Shifting focus to the compound that follows.
Kindly provide the recorded test outcome for the following compound: "Cc1nn(-c2ccc(C(C)(C)C)cc2)c(C)c1[C@@H]1C=C[C@@H](NC(=O)c2ccco2)C1"
active

* * *

assayed_system: Lysine-specific demethylase 5B (Homo sapiens) (UniProt Q9UGL1)
assay_protocol: Primary screen for KDM5B Histone Demethylases FDH-coupled qHTS; also: nearly all actives have a fitted effect of over 70% in size
assay_setup: FDH-coupled NADH fluorescence; series mostly up to 57.7 µM
About 5,700 (2.6%) of roughly 220,000 compounds were called active. About 18% were inconclusive and are not listed. The call rests on the fitted dose curve; in most records, active means well fitted inhibition curve with a large enough effect; inconclusive means small, poorly fitted or top-dose-only effect; inactive means no such curve, though single readings can be large or run the other way. Only a selection was taken, and actives are over-represented in it overall.
Reply using exactly one outcome from 1 = active, -1 = inactive

- compound: "CCn1cc(C(=O)N2C[C@@H](COCC3CC3)[C@H](c3ccccn3)C2)cn1"
  assayed_system: "Lysine-specific demethylase 5B (Homo sapiens) (UniProt Q9UGL1)"
  label: -1
- compound: "N#Cc1ccc(OCC(O)CNCCC2=CCCCC2)cc1 (stereo not given)"
  assayed_system: "Lysine-specific demethylase 5B (Homo sapiens) (UniProt Q9UGL1)"
  label: -1
- compound: "C=CCOC(=O)Nc1nc2c(s1)C[C@@H]1[C@](C)(CO)[C@H](O)CC[C@@]1(C)[C@@H]2CC(=O)N(CC)CC"
  assayed_system: "Lysine-specific demethylase 5B (Homo sapiens) (UniProt Q9UGL1)"
  label: -1

Kindly provide the recorded test outcome for the following compound: "c1ccc([C@@H]2CNC[C@H]2COCC2CC2)nc1"
1

Kindly provide the recorded test outcome for the following compound: "CN(C)Cc1cn2c(=O)n(C)cc(-c3cccc(OCc4ccccc4)c3)c2n1"
-1

Kindly provide the recorded test outcome for the following compound: "O=C(c1ccc2[nH]ccc2c1)N1CCN(S(=O)(=O)c2cccc3nonc23)CC1"
-1

Kindly provide the recorded test outcome for the following compound: "COc1ccc(CNC(=O)CN(Cc2ccccc2Cl)C(=O)c2csnn2)cc1"
-1

Kindly provide the recorded test outcome for the following compound: Fc1ccc(N2CCCN(CC3[C@H]4CNC[C@@H]34)CC2)cc1 (stereo not given in full)
-1

Kindly provide the recorded test outcome for the following compound: CC(=O)N1CCN(Cc2cc(F)ccc2Cl)CC(O)C1 (stereo not given)
-1

Kindly provide the recorded test outcome for the following compound: "Cc1cc(-c2cn(C)c(=O)n3cc(COc4ccccc4)nc23)ccn1"
-1

* * *

assayed_system: Lysine-specific demethylase 5B (Homo sapiens)
assay_protocol: Primary screen for KDM5B Histone Demethylases FDH-coupled qHTS; also: nearly all actives have a fitted effect of over 70% in size
assay_setup: FDH-coupled NADH fluorescence; series mostly up to 57.7 µM
Out of some 220,000 compounds screened, about 5,700 (2.6%) were called active. Roughly 18% stayed inconclusive and do not appear here. Calls follow the shape of the dose curve; as a rule, active = well fitted inhibition curve with a large enough effect; inconclusive = small, poorly fitted or top-dose-only effect; inactive = no such curve, though single readings can be large or run the other way. This excerpt belongs to a sample that is enriched for actives.
Reply using exactly one outcome from YES = active, NO = inactive

- compound: "Cc1cc(NC(=O)CCSc2nnc3c(Cl)cc(C(F)(F)F)cn23)no1"
  label: "NO"
- compound: "CCCOCCCNC(=O)c1c(C)noc1-c1cc(OC)c(OC)c(OC)c1"
  label: "YES"
- compound: "CC(=O)Nc1ccc(SC2CCCCCC2=O)cc1 (stereo unspecified)"
  label: "NO"
- compound: "COc1ccc(OC2CCN(C(C)=O)CC2)c(C(=O)NCc2snnc2C)c1"
  label: "NO"

Kindly provide the recorded test outcome for the following compound: "Cn1ncc2c(C(=O)NCc3cccnc3)cc(C(C)(C)C)nc21"
YES

Kindly provide the recorded test outcome for the following compound: "COc1ccccc1-c1ccc(C(=O)O)cc1"
YES

Kindly provide the recorded test outcome for the following compound: "COc1ccc(S(=O)(=O)N(C)Cc2nc(-c3ccc(OC(F)(F)F)cc3)no2)cc1"
NO

* * *

assayed_system: Lysine-specific demethylase 5B (Homo sapiens)
assay_protocol: Primary screen for KDM5B Histone Demethylases FDH-coupled qHTS; also: nearly all actives have a fitted effect of over 70% in size
assay_setup: FDH-coupled NADH fluorescence; series mostly up to 57.7 µM
Out of some 220,000 compounds screened, about 5,700 (2.6%) were called active. Inconclusive results (about 18%) are left out. Calls come from the whole dose curve; as a rule, active = well fitted inhibition curve with a large enough effect; inconclusive = small, poorly fitted or top-dose-only effect; inactive = no such curve, though single readings can be large or run the other way. For the sample, actives were picked, then their nearest neighbours and some compounds at random.
Reply using exactly one outcome from t (active), f (inactive)

- compound: "Cc1nn2c(c1-c1ccccc1C(C)C)N(C(=O)c1cnccn1)CCC2"
  assayed_system: "Lysine-specific demethylase 5B (Homo sapiens)"
  label: "f"
- compound: "Nc1nc(CCCNC(=O)C2NCCc3[nH]cnc32)cs1 (stereo not given)"
  assayed_system: "Lysine-specific demethylase 5B (Homo sapiens)"
  label: "t"
- compound: "Cc1nn2c(c1-c1ccccc1C(C)C)N(C(=O)c1cccc(C#N)c1)CCC2"
  assayed_system: "Lysine-specific demethylase 5B (Homo sapiens)"
  label: "f"
- compound: "Cc1nn2c(c1-c1ccccc1N1CCCC1)N(C(=O)c1ccn(C)n1)CCC2"
  assayed_system: "Lysine-specific demethylase 5B (Homo sapiens)"
  label: "t"

Kindly provide the recorded test outcome for the following compound: "CCN1CCN(C(=O)Cn2nc(C)c3sc(-c4ccccc4)nc3c2=O)CC1"
t

* * *

assayed_system: Lysine-specific demethylase 5B (Homo sapiens)
assay_protocol: Primary screen for KDM5B Histone Demethylases FDH-coupled qHTS; also: nearly all actives have a fitted effect of over 70% in size
assay_setup: FDH-coupled NADH fluorescence; series mostly up to 57.7 µM
About 5,700 (2.6%) of roughly 220,000 compounds were called active. Roughly 18% stayed inconclusive and do not appear here. Calls follow the shape of the dose curve; as a rule, active = well fitted inhibition curve with a large enough effect; inconclusive = small, poorly fitted or top-dose-only effect; inactive = no such curve, though single readings can be large or run the other way. The list comes from a sample in which actives are over-represented; it also holds close analogues and randomly drawn compounds.
Reply using exactly one outcome from active, inactive

Reference set, count: 10
- molecule: "O=C(NC1CCN(c2nc3ncccc3o2)CC1)c1ccc(Cl)nc1"
  label: "active"
- molecule: "CCc1ccccc1NC(=O)c1cc(C)nc2ccccc12"
  label: "inactive"
- molecule: "Cc1c(-c2ccc(F)cc2)[nH]c2ccc(CNC(=O)c3ccc(CO)o3)cc12"
  label: "active"
- molecule: "FC(F)(F)c1ccc(CCNC(=S)NC2CC2)cc1"
  label: "inactive"
- molecule: "Cn1cc(C#N)cc1-c1nc(COc2ccccc2)nn1CC(F)(F)F"
  label: "inactive"
- molecule: "CN(C)C(=O)NC1CCN(c2nc3ncccc3o2)CC1"
  label: "active"
- molecule: "OCC#Cc1csc(CN2CCCC3(CCNCC3)CC2)c1"
  label: "inactive"
- molecule: "CC(=O)Nc1ccc(S(=O)(=O)Nc2c(NC3CCCC3)c3ccccc3oc2=O)cc1"
  label: "inactive"
- molecule: "O=C(NCc1ccc2c(c1)OCO2)c1noc(-c2ccc(F)cc2)n1"
  label: "inactive"
- molecule: "CCOc1ccccc1C(=O)N[C@@H]1CN(c2ncccn2)C[C@H]1CO"
  label: "active"

Kindly provide the recorded test outcome for the following molecule: "Fc1ccc(Cc2nc3nccc(-c4cc5ccccc5o4)n3n2)cc1"
inactive

Kindly provide the recorded test outcome for the following molecule: "CC(=O)c1ccc(NC(=O)N2CCc3c(nc(-c4ccc(F)cc4)[nH]c3=O)C2)cc1"
active

Kindly provide the recorded test outcome for the following molecule: "COc1cc(F)ccc1C(C)=O"
inactive

Kindly provide the recorded test outcome for the following molecule: "COc1ccc(-c2nc3ccc(C(=O)NCc4ccc(C)cc4)cc3nc2-c2ccc(OC)cc2)cc1"
inactive

Kindly provide the recorded test outcome for the following molecule: "O=C(NCc1ccccc1)C1CCN(c2nc3ccccc3o2)CC1"
inactive

Kindly provide the recorded test outcome for the following molecule: "COC(=O)c1ccc(/C=C2\CCc3c(C)cc(C)cc3C2=O)cc1"
inactive

Kindly provide the recorded test outcome for the following molecule: CN(Cc1ccccc1)C(=O)C1(C)CCCc2cnc(Nc3cccnc3)nc21 (stereo not given)
inactive

* * *

assayed_system: Lysine-specific demethylase 5B (Homo sapiens) (UniProt Q9UGL1)
assay_protocol: Primary screen for KDM5B Histone Demethylases FDH-coupled qHTS; also: nearly all actives have a fitted effect of over 70% in size
assay_setup: FDH-coupled NADH fluorescence (FDH is formaldehyde dehydrogenase); series mostly up to 57.7 µM
Screen size: about 220,000 compounds; about 5,700 (2.6%) were called active. Not shown: some 18% with an inconclusive outcome. The call rests on the fitted dose curve; in most records, active means well fitted inhibition curve with a large enough effect; inconclusive means small, poorly fitted or top-dose-only effect; inactive means no such curve, though single readings can be large or run the other way. The list comes from a sample in which actives are over-represented; it also holds close analogues and randomly drawn compounds.
Reply using exactly one outcome from active, inactive

Reference set, count: 5
- compound: "O=C(Nc1ccccc1C(F)(F)F)N1CCC(N2CCN(Cc3ccccn3)C(=O)C2=O)CC1"
  assayed_system: "Lysine-specific demethylase 5B (Homo sapiens) (UniProt Q9UGL1)"
  label: "inactive"
- compound: "O=C(CCNc1c(-c2ccc(F)cc2)nc2cnccn12)Nc1ccc2c(c1)OCO2"
  assayed_system: "Lysine-specific demethylase 5B (Homo sapiens) (UniProt Q9UGL1)"
  label: "active"
- compound: "COc1cccc(CN2CCc3c(cc(C(=O)NCCN4CCCCC4)n3C)C2)c1"
  assayed_system: "Lysine-specific demethylase 5B (Homo sapiens) (UniProt Q9UGL1)"
  label: "active"
- compound: "CC(C(=O)N1CCc2ccccc21)N(C)CC(=O)Nc1ccc(F)cc1 (stereo unspecified)"
  assayed_system: "Lysine-specific demethylase 5B (Homo sapiens) (UniProt Q9UGL1)"
  label: "inactive"
- compound: "O=C(CNc1nc(Cl)nc2nc[nH]c12)NC1CC1"
  assayed_system: "Lysine-specific demethylase 5B (Homo sapiens) (UniProt Q9UGL1)"
  label: "inactive"

Kindly provide the recorded test outcome for the following compound: "Cc1cc(C)c(NC(=O)COc2ccc(C(=O)Nn3c(C)ccc3C)cc2)c(C)c1"
inactive

Kindly provide the recorded test outcome for the following compound: "COc1ccc(CN2CCc3ncc(C(=O)NCCOc4ccccc4)n3CC2)cn1"
inactive

Kindly provide the recorded test outcome for the following compound: Cc1cccc(C(=O)N2CCCC(C(=O)N3CCN(c4ccccn4)CC3)CCNC(=O)CC2)c1 (stereo unspecified)
active

Kindly provide the recorded test outcome for the following compound: Cc1ccc(C(=O)C(C)OC(=O)Cc2n[nH]c(=O)c3ccccc23)cc1C (stereo unspecified)
inactive

Kindly provide the recorded test outcome for the following compound: COc1ccccc1N1CCN(C(=O)C2CCCN(C(=O)c3ccccc3)CCC(=O)NCC2)CC1 (stereo unspecified)
inactive

Kindly provide the recorded test outcome for the following compound: COCC1CCN(C(=O)c2ccc3oc(Cc4ccccc4)nc3c2)C1 (stereo unspecified)
inactive

Kindly provide the recorded test outcome for the following compound: "O=C(CSc1nc2ccccc2s1)Nc1ccc2c(c1)CCC2"
inactive

Kindly provide the recorded test outcome for the following compound: "CC(C)(C)c1ccc(N2C(=O)[C@@H]3C[C@@H](NC(=O)[C@@H](O)c4ccccc4)CCN3C2=O)cc1"
inactive

Kindly provide the recorded test outcome for the following compound: O=C(c1cccc(C(F)(F)F)c1)N1CCC2(CC1)CC(O)CCO2 (stereo unspecified)
inactive

Kindly provide the recorded test outcome for the following compound: CC(NC(=O)c1ccc(F)cc1)C12CC3CC(CC(C3)C1)C2 (stereo unspecified)
inactive

Kindly provide the recorded test outcome for the following compound: "CC(C)(C)C(=O)COC(=O)c1cc(-c2ccccc2)c(N2CCOCC2)s1"
inactive

Kindly provide the recorded test outcome for the following compound: "CNC(=O)[C@@H]1CN(Cc2cccc(OC)c2)C[C@H]1CO"
inactive

Kindly provide the recorded test outcome for the following compound: "O=C(Nc1cc(F)ccc1F)N1CCC2(CC1)Oc1ccccc1C(=O)N2Cc1ccccc1F"
inactive

Kindly provide the recorded test outcome for the following compound: "Cc1cnc(C(=O)N(C)Cc2ccc(Cl)s2)cn1"
inactive

Kindly provide the recorded test outcome for the following compound: Cc1cccc(NC(CNS(=O)(=O)c2ccccc2)c2ccccc2)c1 (stereo unspecified)
inactive

Kindly provide the recorded test outcome for the following compound: "O=C1CCN(C(=O)C2CCN(C(=O)CCCc3ccccc3)CC2)CCCCCCN1"
inactive
